System: HEK293T cells
Assay: MTT cell viability, HEK293T
Format: cell-based, human
Conditions: read-out: IC50 for 48 h, 48 h
Endpoint: pIC50
Give bare numbers, as −log10 of the molar value.

[Q] Reported pIC50 for N.N.[Cl][Pt][Cl] [cisplatin] : what is it?
[A] 4.94
